Assay: Single dose PK in rats
Assay type: in vivo
Details: plasma, po, 20 mg/kg/day; rat, food admix (FA), 20 mg/kg per day
readout kind: AUC(0-inf) (µg·h/mL)
Only the number, expressed in µg·h/mL, is required.

Input line: Which AUC(0-inf) is reported for this compound? `O=C(OCc1ccc(OC(F)(F)F)cc1)N1C[C@@H]2CN(C(=O)c3ccc4[nH]nnc4c3)C[C@H]2C1`
Output line: 260

====

Assay: HT-solubility assay
Format: physicochemical
Details: aqueous buffer, thermodynamic from solid; phosphate buffer pH 6.5
readout kind: solubility (µg/mL)
# unit: µg/mL | format: bare number

Input line: Fill in: solubility of `O=C(OCc1cc(Cl)cc(Cl)c1)N1CCC2(CC1)CN(C(=O)c1ccc3[nH]nnc3c1)C2` is ___
Output line: 3

Input line: Please answer likewise for `O=C(OCc1ccc(OC(F)(F)F)cc1)N1C[C@@H]2CN(C(=O)c3ccc4[nH]nnc4c3)C[C@H]2C1`
Output line: 28

Input line: Another molecule to check: `CS(=O)(=O)c1cc(Cl)cc(COC(=O)N2C[C@@H]3CN(C(=O)c4ccc5[nH]nnc5c4)C[C@H]3C2)c1`
Output line: 190

Input line: One more molecule: O=C(OCc1cc(Cl)cc(Cl)c1)N1CC[C@@H]2CN(C(=O)c3ccc4[nH]nnc4c3)C[C@H]2C1 (relative stereo)
Output line: 9

Input line: Next record, please: `O=C(OCc1cc(Cl)cc(Cl)c1)N1CC[C@@H]2CN(C(=O)c3ccc4[nH]nnc4c3)C[C@@H]2CC1`
Output line: 7

Input line: Moving on to the next molecule: `O=C(OCc1cc(Cl)cc(Cl)c1)N1C[C@@H]2CN(C(=O)c3ccc4[nH]nnc4c3)C[C@H]2C1`
Output line: 9

Input line: Consider next the molecule `O=C(CCc1ccc(OC(F)(F)F)cc1)N1C[C@@H]2CN(C(=O)c3ccc4[nH]nnc4c3)C[C@H]2C1` in the same way.
Output line: 46

Input line: And `O=C(OCc1cc(Cl)cc(Cl)c1)N1C[C@@H]2CN(C(=O)c3ccc4[nH]c(=O)oc4c3)C[C@@H]2C1` ?
Output line: 19

Input line: Also check `O=C(COc1ccc(OC(F)(F)F)cc1)N1C[C@@H]2CN(C(=O)c3ccc4[nH]nnc4c3)C[C@H]2C1`
Output line: 8

Input line: Please answer likewise for `O=C(OCc1cc(Cl)cc(Cl)c1)N1C[C@@H]2CN(C(=O)c3ccc4[nH]nnc4c3)C[C@@H]2C1`
Output line: 34
